Assay: Acute toxicity in Kunming mouse assessed as mortality at 4000 mg/kg, ig observed for 14 days relative to control
Assay type: organism-based
Conditions: in vivo, po, read-out: Activity
attribute.measured: mortality at 336 h (%)
Please respond with the number in % and leave the unit unwritten.

input: Write down mortality at 336 h measured for item CS(=O)(=O)c1ccc(C(=O)Nc2ccc(Cl)c(-c3ccccn3)c2)c(Cl)c1 [VISMODEGIB]
output: 80

---

// values below are reported Kd
Molecular target: UniProt:Q99835
Sequence (Q99835 whole entry): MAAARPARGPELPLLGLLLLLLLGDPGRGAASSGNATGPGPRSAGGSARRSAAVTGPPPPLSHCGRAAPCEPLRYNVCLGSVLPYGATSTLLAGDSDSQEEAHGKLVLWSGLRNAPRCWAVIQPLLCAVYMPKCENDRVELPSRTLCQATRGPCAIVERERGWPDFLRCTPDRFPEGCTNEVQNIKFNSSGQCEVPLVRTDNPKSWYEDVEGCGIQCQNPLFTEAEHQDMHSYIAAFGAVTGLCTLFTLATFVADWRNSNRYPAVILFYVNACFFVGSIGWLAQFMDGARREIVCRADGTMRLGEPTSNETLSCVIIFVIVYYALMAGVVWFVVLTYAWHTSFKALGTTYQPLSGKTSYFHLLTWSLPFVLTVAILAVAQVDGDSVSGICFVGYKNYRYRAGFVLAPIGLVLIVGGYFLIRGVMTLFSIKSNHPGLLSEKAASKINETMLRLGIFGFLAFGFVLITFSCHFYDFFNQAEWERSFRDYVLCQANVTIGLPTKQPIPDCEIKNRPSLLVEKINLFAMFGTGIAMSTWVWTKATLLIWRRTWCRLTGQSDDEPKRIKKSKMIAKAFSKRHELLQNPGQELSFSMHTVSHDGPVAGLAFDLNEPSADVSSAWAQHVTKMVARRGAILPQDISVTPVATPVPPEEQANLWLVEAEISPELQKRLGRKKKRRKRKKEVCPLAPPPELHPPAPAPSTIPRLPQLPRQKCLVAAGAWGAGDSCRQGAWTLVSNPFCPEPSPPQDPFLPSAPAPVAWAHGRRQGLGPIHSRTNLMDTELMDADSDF
Test: Binding affinity to recombinant human Smo receptor assessed as dissociation constant at equilibrium by SPR analysis
Reply with the number, then its unit.

// worked examples, Kd included
>  <smiles.text>
O=C(Nc1ccc(Cl)c(-c2nnc3c(Cl)cccn23)c1)c1ccc(C(F)(F)F)cc1F

>  <subject.of.test>
UniProt:Q99835

>  <Kd>
13.6 µM

$$$$
>  <smiles.text>
O=C(Nc1ccc(Cl)c(-c2nnc3c(Cl)cccn23)c1)c1ccc(C(F)(F)F)nc1Cl

>  <subject.of.test>
UniProt:Q99835

>  <Kd>
0.0106 µM

$$$$

input: Write down Kd measured for item O=C(Nc1ccc(Cl)c(-c2nnc3c(Cl)cccn23)c1)c1ccc(Cl)nc1Cl
output: 0.0103 µM

input: Write down Kd measured for item O=C(Nc1ccc(Cl)c(-c2nnc3c(Cl)cccn23)c1)c1cccc(Cl)c1
output: 12.1 µM

Taken from ChEMBL document CHEMBL4622968.
